These measurements were taken from the supplement of paper PMC7877785.

assay: self-splicing fitness, log relative to wild type (ln ratio); higher = more splicing; Tetrahymena group I intron in knt gene, E. coli kanamycin selection, DiMSum; sequences stand for … in CUCUCU…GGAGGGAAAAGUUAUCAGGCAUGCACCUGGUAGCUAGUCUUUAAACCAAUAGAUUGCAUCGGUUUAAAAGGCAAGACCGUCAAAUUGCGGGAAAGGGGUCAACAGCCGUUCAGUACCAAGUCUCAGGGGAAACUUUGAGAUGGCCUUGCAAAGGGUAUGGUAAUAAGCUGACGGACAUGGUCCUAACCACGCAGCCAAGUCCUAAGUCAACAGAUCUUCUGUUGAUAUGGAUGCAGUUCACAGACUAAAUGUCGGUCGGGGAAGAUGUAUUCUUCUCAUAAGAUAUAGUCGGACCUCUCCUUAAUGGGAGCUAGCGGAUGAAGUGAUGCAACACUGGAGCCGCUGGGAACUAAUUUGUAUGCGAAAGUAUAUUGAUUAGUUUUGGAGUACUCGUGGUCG; conditions: 30 °C;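 also: selection with 25 µg/mL kanamycin versus none on LB agar overnight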
Overview of reported self-splicing fitness (ln) across a group of sequences:
METRIC: self-splicing fitness (ln)

INSERT INTO assay_data (item_sequence, metric, observed_result) VALUES
  ('UUAAAGCAAUAUUACGCAUC', 'self-splicing fitness (ln)', -1.88),
  ('UAUAAGCAAUAUUACGAUGA', 'self-splicing fitness (ln)', -0.333),
  ('UACGAGCAAUAUUACGAGUC', 'self-splicing fitness (ln)', -2.81),
  ('UUAUAGCAAUAUUACGGAGU', 'self-splicing fitness (ln)', -3.38),
  ('AUACAGCAAUAUUACGGCUG', 'self-splicing fitness (ln)', -1.95),
  ('AACUAGCAAUAUUACGGCUG', 'self-splicing fitness (ln)', -1.02),
  ('GUAUAGCAAUAUUACGCUCG', 'self-splicing fitness (ln)', -0.631),
  ('CGGCAGCAAUAUUACGCAGG', 'self-splicing fitness (ln)', -2.02),
  ('GCUUAGCAAUAUUACGUACU', 'self-splicing fitness (ln)', -0.712),
  ('CUGGAGCAAUAUUACGGAGC', 'self-splicing fitness (ln)', -3.08),
  ('AAAUAGCAAUAUUACGGGAC', 'self-splicing fitness (ln)', -3.19),
  ('GUUUAGCAAUAUUACGUAUA', 'self-splicing fitness (ln)', -2.12),
  ('UGAAAGCAAUAUUACGUAUU', 'self-splicing fitness (ln)', -3.21),
  ('AGCCAGCAAUAUUACGGAAU', 'self-splicing fitness (ln)', -1.76),
  ('AUGGAGCAAUAUUACGUCAG', 'self-splicing fitness (ln)', -2.47),
  ('CGACAGCAAUAUUACGUACC', 'self-splicing fitness (ln)', -0.817),
  ('CAAAAGCAAUAUUACGACGC', 'self-splicing fitness (ln)', -0.886),
  ('GACAAGCAAUAUUACGUCUA', 'self-splicing fitness (ln)', -2.01),
  ('UGUCAGCAAUAUUACGUCUA', 'self-splicing fitness (ln)', 0.314),
  ('GGAAAGCAAUAUUACGGACU', 'self-splicing fitness (ln)', -1.51),
  ('AUACAGCAAUAUUACGGUAC', 'self-splicing fitness (ln)', -4.13),
  ('UAUAAGCAAUAUUACGUGAA', 'self-splicing fitness (ln)', 0.0802),
  ('GGAGAGCAAUAUUACGAGGU', 'self-splicing fitness (ln)', -3.34),
  ('GAAUAGCAAUAUUACGAAAU', 'self-splicing fitness (ln)', -1.3),
  ('CACUAGCAAUAUUACGAUCA', 'self-splicing fitness (ln)', -2.46),
  ('AAUGAGCAAUAUUACGCAGG', 'self-splicing fitness (ln)', -2.85),
  ('CCAUAGCAAUAUUACGGAAA', 'self-splicing fitness (ln)', -2.94),
  ('ACAUAGCAAUAUUACGCGCA', 'self-splicing fitness (ln)', -0.42),
  ('GGCAAGCAAUAUUACGGCCC', 'self-splicing fitness (ln)', -3.62),
  ('AUCUAGCAAUAUUACGCCUC', 'self-splicing fitness (ln)', -1.62),
  ('CCAUAGCAAUAUUACGUUCA', 'self-splicing fitness (ln)', -3.17),
  ('ACUCAGCAAUAUUACGCUCC', 'self-splicing fitness (ln)', -0.601),
  ('AGUUAGCAAUAUUACGGAGG', 'self-splicing fitness (ln)', -2.91),
  ('CAAGAGCAAUAUUACGGGGU', 'self-splicing fitness (ln)', -4.66),
  ('CUAAAGCAAUAUUACGUGCA', 'self-splicing fitness (ln)', -2.77),
  ('AACUAGCAAUAUUACGAUCC', 'self-splicing fitness (ln)', 0.0588),
  ('GAGUAGCAAUAUUACGCCCA', 'self-splicing fitness (ln)', -1.78),
  ('CUAGAGCAAUAUUACGCUAG', 'self-splicing fitness (ln)', -3.78),
  ('GGCCAGCAAUAUUACGUACA', 'self-splicing fitness (ln)', -2.75),
  ('GAACAGCAAUAUUACGGAUU', 'self-splicing fitness (ln)', -1.29),
  ('AUUGAGCAAUAUUACGUAGC', 'self-splicing fitness (ln)', -3.31),
  ('CAAAAGCAAUAUUACGGGAC', 'self-splicing fitness (ln)', -3.76),
  ('AAAGAGCAAUAUUACGCAAU', 'self-splicing fitness (ln)', -3.59),
  ('AGUCAGCAAUAUUACGAAAA', 'self-splicing fitness (ln)', -1.63),
  ('UACCAGCAAUAUUACGAGUU', 'self-splicing fitness (ln)', -1.28),
  ('UUCGAGCAAUAUUACGAGGA', 'self-splicing fitness (ln)', -1.87),
  ('CACCAGCAAUAUUACGCUUU', 'self-splicing fitness (ln)', -3.8),
  ('CUGCAGCAAUAUUACGGCUA', 'self-splicing fitness (ln)', -2.6),
  ('GUCAAGCAAUAUUACGCGCC', 'self-splicing fitness (ln)', -4.2),
  ('UCUGAGCAAUAUUACGGCUU', 'self-splicing fitness (ln)', -2.02),
  ('UUGCAGCAAUAUUACGGAAU', 'self-splicing fitness (ln)', -2.83),
  ('AGUGAGCAAUAUUACGAGAA', 'self-splicing fitness (ln)', -1.8),
  ('CCGAAGCAAUAUUACGGAUG', 'self-splicing fitness (ln)', -2.94),
  ('CAAAAGCAAUAUUACGUUAA', 'self-splicing fitness (ln)', -2.65),
  ('AAUAAGCAAUAUUACGCUGU', 'self-splicing fitness (ln)', -2.61),
  ('GGCCAGCAAUAUUACGCAAA', 'self-splicing fitness (ln)', -3.09),
  ('GCGUAGCAAUAUUACGAAUC', 'self-splicing fitness (ln)', -1.05),
  ('GCUCAGCAAUAUUACGUACA', 'self-splicing fitness (ln)', -2.16),
  ('ACAAAGCAAUAUUACGUGGA', 'self-splicing fitness (ln)', -3.55),
  ('CUACAGCAAUAUUACGCCCC', 'self-splicing fitness (ln)', -2.86),
  ('GGCUAGCAAUAUUACGCUUA', 'self-splicing fitness (ln)', -0.872),
  ('UGAUAGCAAUAUUACGGGCC', 'self-splicing fitness (ln)', -3.78),
  ('GCACAGCAAUAUUACGGUCG', 'self-splicing fitness (ln)', -0.697),
  ('GGUAAGCAAUAUUACGAACG', 'self-splicing fitness (ln)', -0.0623),
  ('UGUGAGCAAUAUUACGGGCC', 'self-splicing fitness (ln)', -3),
  ('UAGCAGCAAUAUUACGUCGA', 'self-splicing fitness (ln)', -1.12),
  ('CUGAAGCAAUAUUACGUCCU', 'self-splicing fitness (ln)', -3.45);
